- subject_of_test: Cytochrome P450 2D6 (Homo sapiens)
- test_description: Cytochrome panel assay with activity outcomes
- experimental_setup: recombinant CYP, pro-luciferin dealkylation, luminescence, p450-cyp2d6; series mostly up to 57.1 µM
- Experimental: The P450 gene superfamily is involved in the metabolism and clearance of xenobiotics. This assay used various human CYP P450 isozymes to measure the dealkylation of various pro-luciferin substrates to luciferin. The luciferin is then measured by luminescence after the addition of a luciferase detection reagent. […] Inhibitors and some substrates limit the production of luciferin, and decrease measured luminescence. […] 8, Detection, 1 sec, ViewLux luminescent read […]
Hit rate of the full screen: of about 16,000 compounds, about 2,600 (16%) were called active. Not shown: some 20% with an inconclusive outcome. Calls come from the whole dose curve; as a rule, active = well fitted curve in the direction sought with a large enough effect; inconclusive = small, poorly fitted or top-dose-only effect, or effect the other way; inactive = no such curve, though single readings can be large or run the other way. Only a sample is shown.
Classes used: True = active, False = inactive

> print(dat)
                                    compound                     subject.of.test  group
 1      Cc1ccc(C(=O)CSc2nc(C)cc(=O)[nH]2)cc1  Cytochrome P450 2D6 (Homo sapiens)  False
 2   COC(=O)c1c(-n2c(C)cc(C=O)c2C)sc2c1CCCC2  Cytochrome P450 2D6 (Homo sapiens)  False
 3    N#Cc1cc(-c2ccc(Cl)cc2)cnc1Sc1ccc(F)cc1  Cytochrome P450 2D6 (Homo sapiens)  False
 4                   CCOc1ccc(Cl)cc1CNCCNCCO  Cytochrome P450 2D6 (Homo sapiens)   True
 5  Cc1nn(Cc2ccc(Cl)cc2)c(C)c1NC(=O)CSc1nc2c(c(C(F)(F)F)n1)CCc1ccccc1-2  Cytochrome P450 2D6 (Homo sapiens)  False
 6  Cc1ccc(-n2nnnc2Sc2nc([N+](=O)[O-])nn2C)cc1C  Cytochrome P450 2D6 (Homo sapiens)  False
 7  CN(C)S(=O)(=O)Oc1ccsc1C(=O)Nc1ccc(Cl)cc1  Cytochrome P450 2D6 (Homo sapiens)   True
 8                 COc1ccc(Cl)cc1NC(=O)NCCCl  Cytochrome P450 2D6 (Homo sapiens)  False
 9    COc1cccc(Nc2ncc3ncc(=O)n(C4CC4)c3n2)c1  Cytochrome P450 2D6 (Homo sapiens)  False
10  O=C(NCc1ccco1)c1ccccc1NS(=O)(=O)c1ccc(Br)s1  Cytochrome P450 2D6 (Homo sapiens)  False
11  O=C1c2c(O)cc(O)cc2O[C@@H](c2ccc(O)c(O)c2)[C@H]1O  Cytochrome P450 2D6 (Homo sapiens)  False
12          C[C@@](N)(Cc1ccc(O)c(O)c1)C(=O)O  Cytochrome P450 2D6 (Homo sapiens)  False
13  CS(=O)(=O)Nc1cccc(-c2ccc3ncnc(N4CCNCC4)c3c2)c1  Cytochrome P450 2D6 (Homo sapiens)  False
14  Cc1nc2ccccn2c1/C(O)=C1\C(=O)C(=O)N(CCCn2ccnc2)C1c1ccncc1 (centres undefined)  Cytochrome P450 2D6 (Homo sapiens)  False
15  Cc1ccccc1C(=O)NN(C)c1nc2ccccc2nc1C(F)(F)F  Cytochrome P450 2D6 (Homo sapiens)  False
16  Cc1ccc(C)c(CN2C(=O)C3CCCN3c3ccc(C#N)cc32)c1 (centres undefined)  Cytochrome P450 2D6 (Homo sapiens)  False
17       O=C(Cn1cccc1C(=O)c1ccccc1)NCc1cccs1  Cytochrome P450 2D6 (Homo sapiens)   True
18  CCCCCCC(C)n1cc(C(C)=O)c(=O)[nH]c1=O (centres undefined)  Cytochrome P450 2D6 (Homo sapiens)  False
19  COCC(=O)Oc1c(S(=O)(=O)c2ccc(C)cc2)c(C)nn1-c1ccccc1  Cytochrome P450 2D6 (Homo sapiens)  False
20      Cc1cc(O)c(/C=N/Nc2cccc(Cl)c2)c(=O)o1  Cytochrome P450 2D6 (Homo sapiens)   True
21      Cc1ccccc1C(=O)c1cccn1CC(=O)NCc1ccco1  Cytochrome P450 2D6 (Homo sapiens)  False
22  CCOC(=O)c1ccc(NC(=O)CC2NCCNC2=O)cc1 (centres undefined)  Cytochrome P450 2D6 (Homo sapiens)  False
23  COc1ccc(C2/C(=C(/O)c3ccc(Cl)cc3)C(=O)C(=O)N2CCN2CCOCC2)c(OC)c1 (centres undefined)  Cytochrome P450 2D6 (Homo sapiens)  False
24  Cc1cc(C)c(-c2noc(C(=O)OC(C)(C)C)c2C(=O)OC(C)(C)C)c(C)c1  Cytochrome P450 2D6 (Homo sapiens)  False
25  CC(C)(C)n1nc2c(c1NC(=O)c1ccc(S(=O)(=O)N3CCCCC3)cc1)CS(=O)C2 (centres undefined)  Cytochrome P450 2D6 (Homo sapiens)  False
26  CCOC(=O)c1c(NC(=O)Cn2cc([N+](=O)[O-])cn2)sc2c1CCC2  Cytochrome P450 2D6 (Homo sapiens)  False
27  Cc1nc(SCC(=O)c2ccc(F)cc2)c([N+](=O)[O-])[nH]1  Cytochrome P450 2D6 (Homo sapiens)   True
28  O=C(NCC(=O)N(c1ccccc1)C(C(=O)NC1CCCC1)c1cccnc1)c1cccs1 (centres undefined)  Cytochrome P450 2D6 (Homo sapiens)  False
29                     CCOc1ccc(C(=O)O)cc1OC  Cytochrome P450 2D6 (Homo sapiens)  False
30  CN1[C@@H](CC(=O)c2ccccc2)CCC[C@@H]1C[C@@H](O)c1ccccc1  Cytochrome P450 2D6 (Homo sapiens)   True
31  Cc1cccc(N2CC(O)=C(c3nc4ccccc4n3C)C2=N)c1  Cytochrome P450 2D6 (Homo sapiens)  False
32               O=c1[nH][nH]cc1C=Nc1ccccc1O  Cytochrome P450 2D6 (Homo sapiens)  False
33  CN(C)S(=O)(=O)Oc1cccc(C(=O)Nc2ccc(Cl)c(Cl)c2)c1  Cytochrome P450 2D6 (Homo sapiens)  False
34      O=C(Cn1ccc([N+](=O)[O-])n1)NCc1cccs1  Cytochrome P450 2D6 (Homo sapiens)  False
35  COC(=O)c1nn(C23CC4CC(CC(C4)C2)C3)c2c1C(=O)N(c1ccc(F)cc1)C2=O  Cytochrome P450 2D6 (Homo sapiens)  False
36  CCOc1ccc(Cl)cc1CNCCNCC(C)O (centres undefined)  Cytochrome P450 2D6 (Homo sapiens)   True
37  CS(=O)(=O)c1ccccc1-c1nc(-c2cc(C(F)(F)F)cc(C(F)(F)F)c2)no1  Cytochrome P450 2D6 (Homo sapiens)  False
38  Cc1cc(C)c(C(N)=O)c(SCC(=O)c2ccc(Cl)cc2)n1  Cytochrome P450 2D6 (Homo sapiens)  False
39  Cc1cccc(NC(=O)CC2Nc3cccc4cccc(c34)NC2=O)c1 (centres undefined)  Cytochrome P450 2D6 (Homo sapiens)   True
